System: Haemophilus influenzae
assay-explanation: Minimum inhibitory concentration against Haemophilus influenzae (strain A20191) in absence of calf serum
Assay type: functional
parameter-measured: MIC

input: Give its MIC value. Item: `COc1ccc(-c2cn(CNC(C)=O)oc2=O)cc1`
output: 16 µg/mL

input: How about this molecule: `CC(=O)NCn1cc(-c2cc(F)cc(F)c2)c(=O)o1`
output: > 64 µg/mL

input: How about this molecule: `CC(=O)NCn1cc(-c2cc(C(F)(F)F)cc(C(F)(F)F)c2)c(=O)o1`
output: > 64 µg/mL

input: How about this molecule: `COc1cccc(-c2cn(CNC(C)=O)oc2=O)c1`
output: > 64 µg/mL

input: How about this molecule: `COc1ccc(-c2cnoc2O)cc1`
output: > 64 µg/mL

input: How about this molecule: `CC(=O)NCn1cc(-c2cccc(Cl)c2)c(=O)o1`
output: 32 µg/mL

input: How about this molecule: `CC(=O)NC[C@H]1CN(c2ccc(N3CCOCC3)c(F)c2)C(=O)O1`
output: 8 µg/mL

input: How about this molecule: `CSc1ccc(-c2cnoc2O)cc1`
output: > 64 µg/mL

input: How about this molecule: `CSc1ccc(-c2cn(CNC(C)=O)oc2=O)cc1`
output: 8 µg/mL

input: How about this molecule: `Oc1oncc1-c1ccc2c(c1)OCO2`
output: > 64 µg/mL

input: How about this molecule: `NC(=O)Cn1cc(-c2ccccc2)c(=O)o1`
output: > 64 µg/mL

input: How about this molecule: `CC(=O)NCn1cc(-c2ccccc2)c(=O)o1`
output: 8 µg/mL

input: How about this molecule: `CC(=O)NCn1cc(-c2ccc(F)cc2)c(=O)o1`
output: 32 µg/mL

input: How about this molecule: `CC(=O)NCn1cc(-c2cccc(C(F)(F)F)c2)c(=O)o1`
output: > 64 µg/mL

input: How about this molecule: `CC(=O)NCn1cc(-c2cccc(C)c2)c(=O)o1`
output: > 64 µg/mL

input: How about this molecule: `Oc1oncc1-c1ccc(-c2ccccc2)cc1`
output: > 64 µg/mL

input: How about this molecule: `COc1cc(OC)cc(-c2cn(CNC(C)=O)oc2=O)c1`
output: 64 µg/mL

input: How about this molecule: `CC(=O)NCn1cc(-c2ccc3c(c2)OCO3)c(=O)o1`
output: 16 µg/mL

input: How about this molecule: `COc1ccc(-c2cn(CNC(C)=O)oc2=O)cc1OC`
output: > 64 µg/mL

input: How about this molecule: `CC(=O)NCn1cc(-c2ccc(Br)cc2)c(=O)o1`
output: 8 µg/mL

input: How about this molecule: `CC(=O)NCn1cc(-c2ccc(F)c(F)c2)c(=O)o1`
output: > 64 µg/mL

input: How about this molecule: `CC(=O)NCn1cc(-c2cccc(F)c2)c(=O)o1`
output: > 64 µg/mL

input: How about this molecule: `CC(=O)NCn1cc(-c2ccc(Cl)cc2)c(=O)o1`
output: 32 µg/mL

input: How about this molecule: `CC(=O)NCn1cc(-c2ccc(-c3ccccc3)cc2)c(=O)o1`
output: 16 µg/mL

src = ChEMBL document CHEMBL1137848
